Cited source for all entries: patent US11780830B2

target: recombinant human MAO-B (monoamine oxidase-B) (Homo sapiens); construct: purchased Sigma-Aldrich; assay: Activity on recombinant human MAO-B, method similar to the VAP-1 assay; type: biochemical; details: substrate 1 mM benzylamine; read-out: Inhibitory Activity (IC50, nM) MAO-B
Sequence (P27338 whole entry): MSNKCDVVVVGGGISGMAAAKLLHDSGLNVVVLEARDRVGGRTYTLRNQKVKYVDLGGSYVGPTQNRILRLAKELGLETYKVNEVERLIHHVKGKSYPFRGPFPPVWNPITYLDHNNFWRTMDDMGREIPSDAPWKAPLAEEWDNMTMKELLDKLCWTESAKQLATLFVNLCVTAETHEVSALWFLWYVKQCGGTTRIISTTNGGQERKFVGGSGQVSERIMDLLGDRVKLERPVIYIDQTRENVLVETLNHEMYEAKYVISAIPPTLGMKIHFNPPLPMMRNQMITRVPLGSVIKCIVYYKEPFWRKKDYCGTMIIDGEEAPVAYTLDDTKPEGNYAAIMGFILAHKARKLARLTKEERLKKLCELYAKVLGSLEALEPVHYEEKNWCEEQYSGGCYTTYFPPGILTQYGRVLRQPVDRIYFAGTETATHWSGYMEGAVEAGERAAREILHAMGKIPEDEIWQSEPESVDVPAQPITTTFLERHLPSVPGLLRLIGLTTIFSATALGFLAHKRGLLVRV
Structures can show the parent of a compound that is named as a salt.
test_readout: IC50 (nM)
Express the result in nM but write the number alone.

See these solved cases before continuing.
1. Cc1c(-c2ccc(Cn3cnn(C/C(=C/F)CN)c3=O)s2)ccc2c1COC(=O)N2 ... 480
2. NC/C(=C\F)Cn1ncn(Cc2ccc(-c3ccc4c(c3)CCCO4)s2)c1=O [Example 109, hydrochloride] ... 104

Kindly review the next compound as well.
Query: Item under review: Cn1cc(C#Cc2ccc(Cn3cnn(C/C(=C/F)CN)c3=O)s2)cn1 [Example 131, hydrochloride] . Reported IC50?
Result: 240
